Values were extracted from paper PMC9787607.

# Tested on: L. amazonensis promastigotes
# measurement_description: Anti-L. amazonensis promastigote assessment (MTT)
# Type: cell-based
# test_conditions: Leishmania amazonensis; 48 h, MTT; read-out: EC50 L. amazonensis promastigotes
# Experimental: Promastigotes of L. amazonensis (MHOM/BR/75/Josefa) were cultured in Schneider’s insect medium (SIM) with 10% FBS. […] Absorbance was measured using a microplate reader at 570 nm. The percent cell or parasite viability was calculated by the formula: % viability = [(A − P)/(N − P)] × 100, A = absorbance of specific well, P = positive control, N = negative control. […] The results are expressed as the mean and standard deviation (SD) of three independent experiments.
outcome_measure: EC50 (µM)
Unit µM implied. Number only.

Previously resolved entries follow.
>  <smiles_str>
C(=C\c1nc(-c2ccccc2)no1)/c1ccc2c(c1)OCCO2

>  <measurement_target>
L. amazonensis promastigotes

>  <units>
µM

>  <obs_value>
92.5

$$$$
>  <smiles_str>
COc1cccc(/C=C/c2nc(-c3ccccc3)no2)c1

>  <measurement_target>
L. amazonensis promastigotes

>  <units>
µM

>  <obs_value>
50.8

$$$$

From here, focus on the item given below.
### Prompt So what's the measured EC50 for this one? "C(=C\c1nc(-c2ccccc2)no1)/c1ccccc1"
### Response 74.5

###

# System: L. amazonensis promastigotes
# measurement_description: Anti-L. amazonensis promastigote assessment (MTT)
# Format: cell-based
# test_conditions: Leishmania amazonensis; 48 h, MTT; read-out: EC50 L. amazonensis promastigotes
outcome_measure: pEC50
# reply with the number alone; pEC50 is -log10 of concentration in mol/L

Previously resolved entries follow.
>  <smiles_str>
C(=C\c1nc(-c2ccccc2)no1)/c1ccco1

>  <pEC50>
4.33

$$$$
>  <smiles_str>
COc1cc(/C=C/c2nc(-c3ccccc3)no2)cc(OC)c1OC

>  <pEC50>
4.59

$$$$
>  <smiles_str>
COc1cc(-c2noc(/C=C/c3ccc4c(c3)OCO4)n2)cc(OC)c1OC

>  <pEC50>
5.00

$$$$

### Prompt Form entry - test system: L. amazonensis promastigotes; read-out: pEC50; molecule: "COc1cc(/C=C/c2nc(-c3cc(OC)c(OC)c(OC)c3)no2)cc(OC)c1OC"
### Response 4.91

###

# System: T. cruzi amastigotes (Tulahuen C2C4 LacZ strain)
# measurement_description: microbe, parasite or virus in culture
# Assay type: cell-based, Trypanosoma cruzi
# test_conditions: Trypanosoma cruzi, TULAHUEN; in LLC-MK2, 120 h; read-out: EC50 T. cruzi intracellular amastigotes
Recorded pEC50 by entry
# reply with the number alone; pEC50 is -log10 of concentration in mol/L

### Prompt So what's the measured pEC50 for this one? "COc1cc(/C=C/c2nc(-c3ccccc3)no2)cc(OC)c1OC"
### Response 4.65

### Prompt So what's the measured pEC50 for this one? "COc1cc(-c2noc(/C=C/c3ccc4c(c3)OCO4)n2)cc(OC)c1OC"
### Response 4.54

### Prompt So what's the measured pEC50 for this one? "C(=C\c1nc(-c2ccccc2)no1)/c1cccnc1"
### Response 4.47

### Prompt So what's the measured pEC50 for this one? "COc1cc(/C=C/c2nc(-c3cc(OC)c(OC)c(OC)c3)no2)cc(OC)c1OC"
### Response 5.54

### Prompt So what's the measured pEC50 for this one? O=C(Cn1ccnc1[N+](=O)[O-])NCc1ccccc1 [Benznidazole, reference compound]
### Response 5.82
